Provide the reported protein stability index of each item.
B1: CDC14A (parent)
chain: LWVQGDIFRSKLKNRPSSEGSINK

- Variants of: B1
- assay_procedure: protein stability index of a GFP-peptide fusion (GPS, HEK-293T) (PSI 1-6); higher = more stable;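 further: lentivirally expressed fusions sorted by FACS into six bins by GFP to DsRed ratio, PSI derived from sequencing read proportions per bin multiplied by bin number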
- test_parameters: c terminus: a fixed tail appended
Reply briefly: the number, and no unit.

Memo: LWVQGDIFRSKLPNRPSSEGSINK [K13P] , reported protein stability index: 3.01

Memo: LWVQGDIFRSKLKDRPSSEGSINK [N14D] , reported protein stability index: 2.67

Memo: LWVPGDIFRSKLKNRPSSEGSINK [Q4P] , reported protein stability index: 2.74

Memo: LWVQGDIFRSKLCNRPSSEGSINK [K13C] , reported protein stability index: 2.2

Memo: LWVQGDIFRSKMKNRPSSEGSINK [L12M] , reported protein stability index: 2.41

Memo: LYVQGDIFRSKLKNRPSSEGSINK [W2Y] , reported protein stability index: 2.67

Memo: LWVQGDIFRSKLKNRPSWEGSINK [S18W] , reported protein stability index: 1.46

Memo: PWVQGDIFRSKLKNRPSSEGSINK [L1P] , reported protein stability index: 3.75

Memo: LWVQGDPFRSKLKNRPSSEGSINK [I7P] , reported protein stability index: 3.15

Memo: LWVQGDIFRSKLKYRPSSEGSINK [N14Y] , reported protein stability index: 2.53

Memo: LWVQEDIFRSKLKNRPSSEGSINK [G5E] , reported protein stability index: 3.34

Memo: LWVQGDIFRAKLKNRPSSEGSINK [S10A] , reported protein stability index: 2.29

Memo: WWVQGDIFRSKLKNRPSSEGSINK [L1W] , reported protein stability index: 2.3

Memo: LWVQGDIFRSKLKNRPSSEGAINK [S21A] , reported protein stability index: 2.77

Memo: LWVQGDIFRSKLKNRPSSEGSTNK [I22T] , reported protein stability index: 3.39

Memo: LPVQGDIFRSKLKNRPSSEGSINK [W2P] , reported protein stability index: 4.26

Memo: LWVQGDIFRSKIKNRPSSEGSINK [L12I] , reported protein stability index: 2.8

Memo: LWVQYDIFRSKLKNRPSSEGSINK [G5Y] , reported protein stability index: 1.39

Memo: LWVQGDIFRSKPKNRPSSEGSINK [L12P] , reported protein stability index: 3.09

Memo: LWVQGDIFRSKLKNRPSSWGSINK [E19W] , reported protein stability index: 1.88

Memo: LWVQGDIFRSKLKNRPSSEASINK [G20A] , reported protein stability index: 2.06

Memo: LWVQGDIFRSKLKNRPSSEGSINA [K24A] , reported protein stability index: 2.31
